# Type: in vivo, human
# condition.info: human, plasma, oral, 150 mg, Vz/F, Day 1; 150 mg; moderate hepatic impairment; geometric mean (SD)

[
  {
    "cpd.smiles": "CCCCOCCOc1ccc(-c2ccc3c(c2)/C=C(/C(=O)Nc2ccc([S@@+]([O-])Cc4cncn4CCC)cc2)CCCN3CC(C)C)cc1",
    "Vd/F [L]": 386
  }
]

---

# Format: in vivo, human
# condition.info: human, plasma, oral, 150 mg, AUC0–∞, Day 14; 150 mg once daily; moderate hepatic impairment; geometric mean (SD)

[
  {
    "cpd.smiles": "CCCCOCCOc1ccc(-c2ccc3c(c2)/C=C(/C(=O)Nc2ccc([S@@+]([O-])Cc4cncn4CCC)cc2)CCCN3CC(C)C)cc1",
    "AUC(0-inf), ng·h/mL": 26100
  }
]

Recorded values, source paper PMC5351328.
